This collection of values is drawn from patent US20120295920A1.

Tested on: HIV-1 Strain B (M046I, I050V)
Assay: microbe, parasite or virus in culture
Format: cell-based
Settings: clinical isolate Strain B; read-out: B EC50
log10(EC50) values for the compounds below.
measuredProperty: log10(EC50) (log10 of the value in nM)

>  <compound>
COc1ccc(-c2ccc(C[C@H](NC(=O)O[C@H]3CO[C@H]4OCC[C@H]43)[C@@H](O)C[C@@H](Cc3ccccc3F)C(=O)N[C@H]3c4ccsc4CC[C@H]3O)cc2)cn1 [Compound 74]

>  <log10(EC50)>
-0.22

$$$$
>  <compound>
CN(C)c1ccc(-c2ccc(CC(NC(=O)C(NC(=O)CN3CCCC3)C(C)(C)C)C(O)CC(Cc3cccc(Cl)c3)C(=O)NC3c4cc(F)ccc4OCC3O)cc2)cn1 (stereo not shown) [Compound 9]

>  <log10(EC50)>
0.82

$$$$
>  <compound>
CCc1ncc(-c2ccc(CC(NC(=O)C(NC(=O)OC)C(C)(C)C)C(O)CC(Cc3ccccc3F)C(=O)NC3c4cc(Cl)ccc4OCC3O)cc2)s1 (stereo not shown) [Compound 14]

>  <log10(EC50)>
0.32

$$$$
>  <compound>
COC(=O)N[C@H](C(=O)N[C@@H](Cc1ccc(-c2cnc(N(C)C)nc2)cc1)[C@@H](O)C[C@@H](Cc1cccc(OC(F)(F)F)c1)C(=O)N[C@H]1c2cc(Cl)ccc2OC[C@H]1O)C(C)(C)C [Compound 49]

>  <log10(EC50)>
0.54

$$$$
>  <compound>
COC(=O)N[C@H](C(=O)N[C@@H](Cc1ccc(-c2ccc(N(C)C)nc2)cc1)[C@@H](O)C[C@@H](Cc1cccc(OC)c1)C(=O)N[C@H]1c2cc(F)ccc2OC[C@H]1O)C(C)(C)C [Compound 26]

>  <log10(EC50)>
0.53

$$$$
>  <compound>
COc1ccc(-c2ccc(C[C@H](NC(=O)O[C@H]3CO[C@H]4OCC[C@H]43)[C@@H](O)C[C@@H](Cc3cccc(OC(F)(F)F)c3)C(=O)N[C@H]3c4cc(Cl)ccc4OC[C@H]3O)cc2)cn1 [Compound 73]

>  <log10(EC50)>
0.61

$$$$
>  <compound>
COC(=O)N[C@H](C(=O)N[C@@H](Cc1ccc(-c2cnc(N(C)C)nc2)cc1)[C@@H](O)C[C@@H](Cc1ccccc1F)C(=O)N[C@H]1c2cc(Cl)ccc2OC[C@H]1O)C(C)(C)C [Compound 43]

>  <log10(EC50)>
0.00

$$$$
>  <compound>
COC(=O)N[C@H](C(=O)N[C@@H](Cc1ccc(-c2ccc(OC)nc2)cc1)[C@@H](O)C[C@@H](Cc1cccc(F)c1)C(=O)N[C@H]1c2cccc(F)c2OC[C@H]1O)C(C)(C)C [Compound 40]

>  <log10(EC50)>
0.00

$$$$
>  <compound>
COC(=O)N[C@H](C(=O)N[C@@H](Cc1ccc(-c2cnc(C3CC3)s2)cc1)[C@@H](O)C[C@@H](Cc1ccccc1F)C(=O)N[C@H]1c2cc(Cl)ccc2OC[C@H]1O)C(C)(C)C [Compound 28]

>  <log10(EC50)>
0.32

$$$$
>  <compound>
COC(=O)N[C@H](C(=O)N[C@@H](Cc1ccc(-c2ccc(OC)nc2)cc1)[C@@H](O)C[C@@H](Cc1ccccc1Cl)C(=O)N[C@H]1c2ccsc2CC[C@H]1O)C(C)(C)C [Compound 95]

>  <log10(EC50)>
0.11

$$$$

====

Overview of reported EC50 across a group of compounds:
Test system: HIV-1 Strain B (M046I, I050V)
Experiment: microbe, parasite or virus in culture
Format: cell-based
Conditions: clinical isolate Strain B; read-out: B EC50
measuredProperty: EC50

>  <compound>
COC(=O)NC(C(=O)NC(Cc1ccc(-c2ccc(OC)nc2)cc1)C(O)CC(Cc1ccccc1F)C(=O)NC1c2ccccc2OCC1O)C(C)(C)C (centres unmarked) [Compound 16]

>  <measuredProperty>
EC50

>  <readoutValue>
1.3 nM

$$$$
>  <compound>
COc1cccc(C[C@H](C[C@H](O)[C@H](Cc2ccc(-c3csc(N(C)C)n3)cc2)NC(=O)O[C@H]2CO[C@H]3OCC[C@H]32)C(=O)N[C@H]2c3cc(Cl)ccc3OC[C@H]2O)c1 [Compound 71]

>  <measuredProperty>
EC50

>  <readoutValue>
2.3 nM

$$$$
>  <compound>
COC(=O)NC(C(=O)NC(Cc1ccc(-c2ccc(N(C)C)nc2)cc1)C(O)CC(Cc1ccccc1F)C(=O)NC1c2ccccc2OCC1O)C(C)(C)C (centres unmarked) [Compound 7]

>  <measuredProperty>
EC50

>  <readoutValue>
0.9 nM

$$$$
>  <compound>
COC(=O)NC(C(=O)NC(Cc1ccc(-c2ccc(OC)nc2)cc1)C(O)CC(Cc1ccccc1F)C(=O)NC1CCCCC1O)C(C)(C)C (centres unmarked) [Compound 100]

>  <measuredProperty>
EC50

>  <readoutValue>
0.7 nM

$$$$
>  <compound>
COC(=O)N[C@H](C(=O)N[C@@H](Cc1ccc(-c2ccc(N(C)C)nc2)cc1)[C@@H](O)C[C@@H](Cc1ccccc1F)C(=O)N[C@H]1c2cccc(F)c2OC[C@H]1O)C(C)(C)C [Compound 51]

>  <measuredProperty>
EC50

>  <readoutValue>
1.5 nM

$$$$

====

Tested on: mock-infected MT4 cells
Assay: General toxicity assay on mock-infected MT4 cells with CMV-EGFP reporter (CC50)
Format: cell-based
Details: mock-infected MT4 cells with CMV-EGFP reporter; read-out: TOX-MT4CMV (CC50)
Listed below: CC50 values for each entry.
measuredProperty: CC50

>  <molecule>
COC(=O)NC(C(=O)NC(Cc1ccc(-c2csc(N(C)C)n2)cc1)C(O)CC(Cc1ccccc1F)C(=O)NC1c2cc(Cl)ccc2OCC1O)C(C)(C)C (centres unmarked) [Compound 20]

>  <readoutValue>
6 µM

$$$$
>  <molecule>
COc1cccc(C[C@H](C[C@H](O)[C@H](Cc2ccc(-c3csc(N(C)C)n3)cc2)NC(=O)O[C@H]2CO[C@H]3OCC[C@H]32)C(=O)N[C@H]2c3cc(Cl)ccc3OC[C@H]2O)c1 [Compound 71]

>  <readoutValue>
> 32 µM

$$$$
>  <molecule>
COC(=O)NC(C(=O)NC(Cc1ccc(-c2ccc(N(C)C)nc2)cc1)C(O)CC(Cc1cccc(OC)c1)C(=O)NC1c2ccccc2OCC1O)C(C)(C)C (centres unmarked) [Compound 15]

>  <readoutValue>
> 32 µM

$$$$
>  <molecule>
CCc1ncc(-c2ccc(C[C@H](NC(=O)[C@@H](NC(=O)OC)C(C)(C)C)[C@@H](O)C[C@@H](Cc3ccccc3F)C(=O)N[C@H](C(=O)NC)C(C)(C)C)cc2)s1 [Compound 84]

>  <readoutValue>
> 32 µM

$$$$
>  <molecule>
COC(=O)N[C@H](C(=O)N[C@@H](Cc1ccc(-c2ccc(N(C)C)nc2)cc1)[C@@H](O)C[C@@H](Cc1ccccc1F)C(=O)N[C@H]1c2cc(F)ccc2OC[C@H]1O)C(C)(C)C [Compound 33]

>  <readoutValue>
> 32 µM

$$$$

====

Entries and their CC50
System: mock-infected MT4 cells
Experiment: General toxicity assay on mock-infected MT4 cells with CMV-EGFP reporter (CC50)
Type: cell-based
Conditions: MT4LTR cells; read-out: TOX-MT4LTR (CC50)

>  <chemicalSmiles>
COC(=O)N[C@H](C(=O)N[C@@H](Cc1ccc(-c2ccc(OC)nc2)cc1)[C@@H](O)C[C@@H](Cc1ccccc1Cl)C(=O)N[C@H]1c2ccsc2CC[C@H]1O)C(C)(C)C

>  <CC50>
23 µM

$$$$
>  <chemicalSmiles>
COc1ccc(-c2ccc(C[C@H](NC(=O)O[C@H]3CO[C@H]4OCC[C@H]43)[C@@H](O)C[C@@H](Cc3ccccc3F)C(=O)N[C@H]3c4cc(F)ccc4OC[C@H]3O)cc2)cn1

>  <CC50>
> 32 µM

$$$$
>  <chemicalSmiles>
COC(=O)N[C@H](C(=O)N[C@@H](Cc1ccc(-c2cnc(N(C)C)nc2)cc1)[C@@H](O)C[C@@H](Cc1ccccc1F)C(=O)N[C@H]1c2cc(Cl)ccc2OC[C@H]1O)C(C)(C)C

>  <CC50>
> 32 µM

$$$$
>  <chemicalSmiles>
COC(=O)N[C@H](C(=O)N[C@@H](Cc1ccc(-c2cnc(N(C)C)nc2)cc1)[C@@H](O)C[C@@H](Cc1ccccc1Cl)C(=O)N[C@H]1c2cc(F)ccc2OC[C@H]1O)C(C)(C)C

>  <CC50>
> 32 µM

$$$$

====

Each entry below carries its reported CC50.
System: mock-infected MT4 cells
Assay: General toxicity assay on mock-infected MT4 cells with CMV-EGFP reporter (CC50)
Type: cell-based
Settings: MT4LTR cells; read-out: TOX-MT4LTR (CC50)

>  <compound>
COCCOC(=O)N[C@H](C(=O)N[C@@H](Cc1ccc(-c2ccc(OC)nc2)cc1)[C@@H](O)C[C@@H](Cc1ccccc1F)C(=O)N[C@H]1c2cc(Cl)ccc2OC[C@H]1O)C(C)(C)C [Compound 55]

>  <CC50>
> 32 µM

$$$$
>  <compound>
CN(C)c1ccc(-c2ccc(C[C@H](NC(=O)[C@@H](NC(=O)C3(C#N)CC3)C(C)(C)C)[C@@H](O)C[C@@H](Cc3ccccc3F)C(=O)N[C@H]3c4cc(F)ccc4OC[C@H]3O)cc2)cn1 [Compound 35]

>  <CC50>
> 32 µM

$$$$
>  <compound>
CCOc1ccc(-c2ccc(C[C@H](NC(=O)[C@@H](NC(=O)OC)C(C)(C)C)[C@@H](O)C[C@@H](Cc3ccccc3F)C(=O)N[C@H]3c4cc(Cl)ccc4OC[C@H]3O)cc2)cn1 [Compound 44]

>  <CC50>
> 32 µM

$$$$
